Values were extracted from patent US11351178B2.

- Tgt: HDAC2 (Homo sapiens)
- Sequence (Q92769 whole entry): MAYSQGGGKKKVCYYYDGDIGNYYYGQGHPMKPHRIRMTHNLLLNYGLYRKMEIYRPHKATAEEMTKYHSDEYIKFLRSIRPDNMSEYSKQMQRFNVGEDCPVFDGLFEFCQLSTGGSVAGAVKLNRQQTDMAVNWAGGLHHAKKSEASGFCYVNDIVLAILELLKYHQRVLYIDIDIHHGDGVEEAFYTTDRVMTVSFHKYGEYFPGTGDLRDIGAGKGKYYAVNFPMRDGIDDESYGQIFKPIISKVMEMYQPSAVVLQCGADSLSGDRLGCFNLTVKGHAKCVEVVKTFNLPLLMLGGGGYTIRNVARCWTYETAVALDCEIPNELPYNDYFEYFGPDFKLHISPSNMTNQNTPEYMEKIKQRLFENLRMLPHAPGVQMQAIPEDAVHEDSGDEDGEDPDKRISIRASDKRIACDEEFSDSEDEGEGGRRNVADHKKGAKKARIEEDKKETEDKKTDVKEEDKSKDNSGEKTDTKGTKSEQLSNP
The following compounds are listed with their measured IC50 values.

| Test smiles | IC50 [µM] |
| --- | --- |
| Cn1c(Sc2c(F)cc(C(=O)NO)cc2F)nnc1-c1cccs1 | 16 |
| O=C(NO)c1cc(F)c(Cn2nnnc2-c2cccs2)c(F)c1 | 8.8 |
| O=C(NO)c1ccc(Cn2nnc(-c3ccccc3F)n2)cc1 | 0.81 |
| Cn1c(Sc2ccc(C(=O)NO)cc2)nnc1-c1cccs1 | 4.45 |
